Listing of recorded composite Z-score by entry.
# Protocol notes: small-molecule microarray binders of probe aXIP, primary screen, biochemical, NeuroSMM set, 635/667 nm fluorescence (AID 1119);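 note: probe is the protein aXip251-270 applied at 1 µg/mL to compound-printed slides; binding of probe to printed compounds measured as 667 nm fluorescence plus signal to noise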
# Run parameters: higher = more signal, called active from +8 up or from −8 down
Form field (numeric): enter value without unit.

Molecule	Data value
CCOC(=O)[C@H](Cc1ccccc1)NC(=O)CCC1CC(OC(=O)NCc2cccc3ccccc23)CC2(CCCC(COC(=O)NCCc3ccccc3OC)O2)O1 (some centres not stated)	-0.564
COC(=O)[C@@H]1CC[C@H](C)[C@@H](c2ccc(Br)cc2)N1C(=O)C(F)(F)F	-0.225
CO[C@@H]1COC(=O)[C@H](COCc2ccccc2)NC(=O)CC=C[C@@H](C)[C@H](OC)COC(=O)[C@@H](C)NC(=O)CC=C[C@H]1C	-0.0478
CO[C@H]1COC(=O)[C@H](C)COC(=O)[C@H](C)NC(=O)CC=C[C@H]1C	1.19
CSCC[C@@H]1NC(=O)CC=C[C@@H](C)COC(=O)[C@H](C)COC1=O	3.62
CC(=O)OC[C@H]1O[C@H](CC=NO[C@@H](C)c2cc(-c3c(C)cc(C)cc3C)no2)C=C[C@@H]1OC(C)=O	0.209

Now for another entry.
stdin: Note composite Z-score for the molecule shown: C[C@@H](c1ccccc1)N1C(=O)[C@H]2[C@H]3[C@H](O)[C@H](O)CC(=NOC[C@@H](O)COCc4ccco4)[C@H]3CC[C@H]2C1=O
stdout: -0.0004

###

# Test system: Wnt5a (protein binding on small-molecule microarray)
# Protocol notes: Wnt5a binders on small-molecule microarray, primary screen, biophysical, 635/667 nm fluorescence (AID 1142);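 note: fluorescence read at 667 nm with signal to noise per printed feature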
# Run parameters: 635 nm fluorescence, higher = more signal
Measured property: composite z-score
Form field (numeric): enter value without unit.

Examples from the recorded data:
                                   compound  measured_property  data_value
0  C=CC[C@@H]1C=C[C@H](ON=C[C@@H](NS(=O)(=O)c2ccc(C)cc2)[C@H](C)C=CCC(=O)OC)[C@@H](CO)O1  composite z-score      -0.116
1  O=C(NN=C1C[C@@H](O)[C@@H](O)[C@@H]2[C@@H]3C(=O)N(Cc4ccccc4)C(=O)[C@@H]3CC[C@H]12)OCc1ccccc1  composite z-score      -0.014
2  CC(CCC(=O)OC[C@H]1O[C@H](C#Cc2ccccc2)C=C[C@@H]1Oc1ccc(C)cc1)=NOC(C)CN1CCCc2nc(C)c(C)cc21 (some centres undefined)  composite z-score      0.0127

Now for another entry.
stdin: Note composite z-score for the compound shown: CO[C@@H]1C=CCC(=O)N[C@@H](C)C(=O)OC[C@@H](OC)[C@H](C)C=CCC(=O)OC[C@H]1C
stdout: 0.552

###

# Test system: Sam68 (KHDRBS1)
# Protocol notes: Sam68 small-molecule binders, primary screen, biochemical, small-molecule microarray, 635 nm fluorescence (AID 1125);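 note: score merges 667 nm channel intensity with signal to noise over triplicate slides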
# Run parameters: small-molecule microarray binding, higher = more signal
Class met: composite z-score at least 0.4. Class not met: composite z-score below 0.4.

# example entries with known answers
>>> df
                                   compound    target_system    group
0  CC(=O)OC[C@H]1O[C@H](CC=NOCC[C@@H]2C=C[C@H](OC(C)=O)[C@@H](COC(C)=O)O2)C=C[C@@H]1OC(C)=O  Sam68 (KHDRBS1)      met
1  CC(C)=NO[C@@H](C)c1cn([C@H](CO)Cc2ccccc2)nn1  Sam68 (KHDRBS1)      met
2  CCN1C(=O)[C@H]2[C@H]3[C@H](O)[C@H](O)CC(=NO[C@H](C)c4cn([C@H](CO)Cc5ccccc5)nn4)[C@@H]3CC[C@H]2C1=O  Sam68 (KHDRBS1)      met
3  COC(=O)[C@@H]1CC[C@H](C)[C@@H](c2ccc(Br)cc2)N1C(=O)C(F)(F)F  Sam68 (KHDRBS1)  not met
4  COC(=O)[C@H](C)NC(=O)CCC1CC(OC(=O)NCCc2ccc(F)cc2)CC2(CCCC(COC(=O)NCC3CCCCC3)O2)O1 (some centres not stated)  Sam68 (KHDRBS1)      met

Here's the next entry for you.
stdin: Dear colleague, could you confirm whether C=C(C)C(=O)OC[C@H]1CN2[C@@H](CC[C@@H](C)[C@@H]2c2ccc(Br)cc2)C(=O)O1 has composite z-score at or above 0.4?
stdout: met

###

# Target system: Carbonic anhydrase 2 (Homo sapiens) (UniProt P00918)
# Protocol notes: CAII small-molecule binders, profiling panel, biochemical, small-molecule microarray, Alexa647-labelled CAII (AID 1122)
# Run parameters: CAII-A647 binding fluorescence, higher = more signal
Class label 1: composite z-score at least -0.08. Class label 0: composite z-score below -0.08.

# example entries with known answers
In [3]: df
Out[3]:
                                   compound    group
0  COC(=O)[C@H](C)NC(=O)CCC1CC(OC(=O)NCc2cccc3ccccc23)CC2(CCCC(COC(=O)NCCC(C)C)O2)O1 (some centres not stated)  label 1
1  C=CC[C@@H]1C=C[C@H](Oc2ccc(C)cc2)[C@@H](COC(=O)NCc2cccc3ccccc23)O1  label 1
2  CC(C)=NO[C@@H](C)c1cn([C@H](CO)Cc2ccccc2)nn1  label 1
3  CC(C)(C)N1C(=O)[C@H]2[C@H]3[C@H](O)[C@H](O)CC(=NOC[C@@H](O)COCc4ccco4)[C@@H]3CC[C@H]2C1=O  label 0
4   COC(=O)[C@H](CCSC)NC(=O)CC=C[C@@H](C)CO  label 1

stdin: Dear colleague, could you confirm whether O=C1[C@H]2[C@H]3[C@H](O)[C@H](O)CC(=NOCc4ccccc4)[C@@H]3CC[C@H]2C(=O)N1c1cccc(Oc2ccccc2)c1 has composite z-score at or above -0.08?
stdout: label 1

stdin: Dear colleague, could you confirm whether CON=C[C@@H](OC)[C@H](C)C=CCC(=O)OC has composite z-score at or above -0.08?
stdout: label 0

###

# Target system: NADPH oxidase 5 (Homo sapiens)
# Protocol notes: NOX5-dependent H2O2 signal modulators, primary screen, NOX inhibitor project, cell-based, HEK293-NOX5, Amplex Red fluorescence (AID 1161)
# Run parameters: HEK293-NOX5, ionomycin, 45 min, higher = more signal
Listing of recorded z-score by entry.
Form field (numeric): enter value without unit.

Examples from the recorded data:
Compound	z-score
CC(CCN1CCc2nc(-c3ccccc3)c(-c3ccccc3)cc2C1)=NO[C@H](C)c1cn([C@H](CO)Cc2ccccc2)nn1	-1.75
CCc1cc2c(nc1CC)CCN(CCC(C)=NOC(C)CN1CCCCc3nc(C)c(C)cc31)C2 (stereo not given)	-2.84
O=C1C[C@@H](O)[C@@H](O)[C@@H]2[C@@H]3C(=O)N(C4CCCCC4)C(=O)[C@@H]3CC[C@@H]12	0.0192
CC(C)[C@@H](OCc1ccccc1)[C@H](C)C=NO[C@H](C)c1cn([C@@H]2COC[C@H]2O)nn1	0.704
C#CCCCON=C1C[C@@H](O)[C@@H](O)[C@@H]2[C@@H]3C(=O)N(CC)C(=O)[C@@H]3CC[C@H]12	0.15

stdin: Lab note: NADPH oxidase 5 (Homo sapiens) assay, enter z-score for CC(C)=NO[C@@H](C)c1cn([C@H](CO)Cc2ccccc2)nn1 here
stdout: 0.628

stdin: Lab note: NADPH oxidase 5 (Homo sapiens) assay, enter z-score for COc1ccc(O[C@H]2C=C[C@@H](C#Cc3ccccc3)O[C@@H]2CO)cc1 here
stdout: -0.196

stdin: Lab note: NADPH oxidase 5 (Homo sapiens) assay, enter z-score for C[C@H]1CC[C@@H](C(=O)O)N[C@@H]1c1cccc(N2CCCC2=O)c1 here
stdout: 0.682

stdin: Lab note: NADPH oxidase 5 (Homo sapiens) assay, enter z-score for CON(C)C(=O)c1nnc2c(n1)[nH]c1ccccc12 here
stdout: 0.836

stdin: Lab note: NADPH oxidase 5 (Homo sapiens) assay, enter z-score for CC(C)CON=C1C[C@@H](O)[C@@H](O)[C@@H]2[C@@H]3C(=O)N(C(C)(C)C)C(=O)[C@@H]3CC[C@@H]12 here
stdout: -2.22

stdin: Lab note: NADPH oxidase 5 (Homo sapiens) assay, enter z-score for CC(CCN1CCCc2nc(C)c(C)cc21)=NO[C@H](C)c1cn([C@@H]2COC[C@H]2O)nn1 here
stdout: 0.371

###

# Target system: E3 ubiquitin-protein ligase XIAP (Homo sapiens)
# Protocol notes: XIAP binders, primary screen, biophysical, small-molecule microarray, fluorescence 635 nm (AID 1181);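 note: score merges 667 nm emission and signal to noise over triplicate slides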
# Run parameters: small-molecule microarray binding, higher = more signal
Listing of recorded composite z-score by entry.
Form field (numeric): enter value without unit.

Examples from the recorded data:
In [3]: df
Out[3]:
                                   molecule  data_value
0  O=C(NN=C1C[C@@H](O)[C@@H](O)[C@@H]2[C@@H]3C(=O)N(Cc4ccccc4)C(=O)[C@@H]3CC[C@H]12)OCc1ccccc1       -0.21
1  COc1ccc(COC(=O)NN=C2C[C@@H](O)[C@@H](O)[C@@H]3[C@@H]4C(=O)N([C@@H](C)c5ccccc5)C(=O)[C@@H]4CC[C@@H]23)cc1      -0.126
2  COC(=O)[C@H](C)NC(=O)CC=C[C@@H](C)[C@@H]1C=C[C@H](O)[C@@H](CO)O1      0.0623
3  CC(C)=CCCC(C)=CCON=C1C[C@@H](O)[C@@H](O)[C@@H]2[C@@H]3C(=O)N(C4CCCCC4)C(=O)[C@@H]3CC[C@H]12      -0.111
4  COC(=O)[C@H](C)NC(=O)CCC1CC(OC(=O)NCc2ccc3c(c2)OCO3)CC2(CCCC(COC(=O)NCCc3ccc(Cl)cc3)O2)O1 (some centres not stated)     -0.0559

stdin: Lab note: E3 ubiquitin-protein ligase XIAP (Homo sapiens) assay, enter composite z-score for CC(=O)OC[C@H]1O[C@H](CC=NO[C@H](C)c2cn([C@@H]3COC[C@H]3O)nn2)C=C[C@@H]1OC(C)=O here
stdout: -0.0447

stdin: Lab note: E3 ubiquitin-protein ligase XIAP (Homo sapiens) assay, enter composite z-score for CCO[C@H](c1cc(OC)cc([N+](=O)[O-])c1OC)[C@H](C)[C@@H](OC)[C@H](C)C=CCC(=O)OC here
stdout: 0.1
